- Assay: in vitro
- Assay setup: human, Caco-2, pH 7.4
Experimental endpoint: Papp B→A at 120 min (×10⁻⁶ cm/s)
Numeric only. Scale: ×10⁻⁶ cm/s

query: Give the value of Papp B→A at 120 min reported for the following: O=C(CCCOc1ccc(C[C@H](NC(=O)OCc2ccccc2)C(=O)O)cc1)NC1=NCCCN1
result: 2.1
